B1: Steroid hormone receptor ERR2, residues 100 to 176; numbered along this chain, O95718 (parent)
chain: KRLCLVCGDIASGYHYGVASCEACKAFFKRTIQGNIEYSCPATNECEITKRRRKSCQACRFMKCLKVGMLKEGVRLD

Variants of: B1
Assay: abundance fitness (aPCA) (normalised: wild type 0, dead -1); higher = more abundant; growth selection in yeast, the domain comes from the species named
Settings: Homo sapiens
Quantity: abundance fitness

Answered cases to consult:
K29R :: 0.085
Y38L :: -0.398
C64R :: -0.751
T43M :: 0.03
A26S :: -0.338
N35R :: -0.047
C4M :: -0.72
K25E :: 0.41
Y16I :: -0.342
A11K :: -0.424

Fill in the blank: the reported abundance fitness of C24R is ____. -0.744

Please do the same for K1Q as well. -0.346

Please do the same for E45T as well. -0.209

Please do the same for G34Q as well. 0.254

Please do the same for D9G as well. -0.208

Please do the same for S20D as well. -0.218

Please do the same for T49N as well. 0.015

Please do the same for C24I as well. -0.707

Please do the same for G13S as well. -0.555
